experiment: Pharmacokinetic measurement in mouse, single sc dose 30 nmol/kg, plasma ELISA; conditions: single sc dose 30 nmol/kg
reported_endpoint: Tmax (h)
Kindly provide the numeric value in h only, without the unit symbol.

Use the examples below as a reference point.
MLC003: unconjugated GLP-1/GDF15 fusion protein (protein) HGEGTFTSDVSSYLEEQAAKEFIAWLVRGGGGQEPGQEPGQEPGQEPGQEPGQEPGQEPGQEPGAQPGAQPARQGDHCPLGPGRCCRLHTVRASLEDLGWADWVLSPREVQVTMCIGACPSQFRAANLHAQIKTSLHRLRPDTVPAPCCVPASYNPMVLIQRTDTGVSLQTYDDLLARDCHCI; 1.0
MLC089: fusion polypeptide SEQ ID NO: 379 conjugated with Moiety B at 39C of Linker (conjugate, Moiety B conjugated at linker Cys39) HGEGTFTSDVSSYLEEQAAKEFIAWLVRGGGGAQPGAQPGAQPGAQPGAQPGAQPGAQPGAQPGQEPGQCPGQEPGAQPGQEPGAQPGQEPGAQPGQEPGAQPGQEPGAQPARQGDHCPLGPGRCCRLHTVRASLEDLGWADWVLSPREVQVTMCIGACPSQFRAANLHAQIKTSLHRLKPDTVPAPCCVPASYNPMVLIQKTDTGVSLQTYDDLLAKDCHCI; 10.7

API: the following record is the query input.
Query: Would you kindly share the measured Tmax for MLC008: fusion polypeptide SEQ ID NO: 255 conjugated with Moiety A at 6K of Linker (conjugate, Moiety A conjugated at linker K6) HGEGTFTSDVSSYLEEQAAREFIAWLVRGGGGQEPGKEPGQEPGQEPGQEPGQEPGQEPGQEPGAQPGAQPARQGDHCPLGPGRCCRLHTVRASLEDLGWADWVLSPREVQVTMCIGACPSQFRAANLHAQIKTSLHRLRPDTVPAPCCVPASYNPMVLIQRTDTGVSLQTYDDLLARDCHCI ?
Response: 0.7
